Reference source for all entries: patent US20210380703A1

Some binders, each annotated with its measured optical density.
STUDY SYSTEM: T1, human ACVR2A (human, UniProt P27037 20-135, limits assumed); note: test concentration or dose not given here
T1 construct: also called activin receptor, type II A
T1 sequence (P27037 20-135 limits assumed): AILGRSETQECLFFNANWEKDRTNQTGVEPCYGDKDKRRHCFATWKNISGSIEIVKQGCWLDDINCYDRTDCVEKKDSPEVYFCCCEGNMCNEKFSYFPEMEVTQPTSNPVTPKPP
PROTOCOL: ELISA
MEASURE NAME: optical density

BINDER	MEASURE NAME	OBSERVED
370_B06 (antibody, V domains shown, Group II) VH: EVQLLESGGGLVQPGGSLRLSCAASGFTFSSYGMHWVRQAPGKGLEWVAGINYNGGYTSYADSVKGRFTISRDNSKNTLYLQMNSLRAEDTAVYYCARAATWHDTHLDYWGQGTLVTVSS VL: DIQMTQSPSSLSASVGDRVTITCRASQSIVSYVNWYQQKPGKAPKLVIYAATSRASGVPSRFSGSGSGTDFTLTISSLQPEDFATYYCQQSYETPLTFGGGTKVEIK	optical density	2.88 OD
365_B12 (antibody, V domains shown, Group II) VH: EVQLLESGGGLVQPGGSLRLSCAASGFTFSDYGMHWVRQAPGKGLEWVSGINYNGGYTSYADSVKGRFTISRDNSKNTLYLQMNSLRAEDTAVYYCARAATWHDTHLDYWGQGTLVTVSS VL: DIQMTQSPSSLSASVGDRVTITCRASQSISTYVNWYQQKPGKAPKLLIYAVTSLHSGVPSRFSGSGSGTDFTLTISSLQPEDFATYYCQQSYDNPLTFGGGTKVEIK	optical density	2.33 OD
374_B02 (antibody, V domains shown, Group I) VH: EVQLLESGGGLVQPGGSLRLSCAASGFTFDSYSMHWVRQAPGKGLEWVAGINYNSGYTSYADSVKGRFTISRDNSKNTLYLQMNSLRAEDTAVYYCARAANWHDTHLDYWGQGTLVTVSS VL: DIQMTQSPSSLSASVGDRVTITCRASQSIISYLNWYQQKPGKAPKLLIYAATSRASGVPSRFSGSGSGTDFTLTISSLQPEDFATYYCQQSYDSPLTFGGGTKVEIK	optical density	3.42 OD
375_D02 (antibody, V domains shown, Group II) VH: EVQLLESGGGLVQPGGSLRLSCAASGFTFSSYSMNWVRQAPGKGLEWVSNINYNGGYTSYADSVKGRFTISRDNSKNTLYLQMNSLRAEDTAVYYCARAATWHDTHLDYWGQGTLVTVSS VL: DIQMTQSPSSLSASVGDRVTITCRASQSILTYLNWYQQKPGKAPKLLIYAASSLQSGVPSRFSGSGSGTDFTLTISSLQPEDFATYYCQQSYELPLTFGGGTKVEIK	optical density	3.63 OD
366_F02 (antibody, V domains shown, Group III) VH: EVQLLESGGGLVQPGGSLRLSCAASGFTFSSYGMNWVRQAPGKGLEWVSGINYNSGYTGYADSVKGRFTISRDNSKNTLYLQMNSLRAEDTAVYYCARGANWHDTHLDYWGQGTLVTVSS VL: DIQMTQSPSSLSASVGDRVTITCRASQSILTYLNWYQQKPGKAPKLVIYAATSRHSGVPSRFSGSGSGTDFTLTISSLQPEDFATYYCQQSYDNPLTFGGGTKVEIK	optical density	2.15 OD
367_F10 (antibody, V domains shown, Group II) VH: EVQLLESGGGLVQPGGSLRLSCAASGFTFDSYGMNWVRQAPGKGLEWVSGINYNSGYTSYADSVKGRFTISRDNSKNTLYLQMNSLRAEDTAVYYCARAATWHDTHLDYWGQGTLVTVSS VL: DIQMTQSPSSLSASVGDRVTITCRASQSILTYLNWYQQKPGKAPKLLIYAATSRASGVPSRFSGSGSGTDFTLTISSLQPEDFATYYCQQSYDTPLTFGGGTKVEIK	optical density	2.21 OD
375_A11 (antibody, V domains shown, Group I) VH: EVQLLESGGGLVQPGGSLRLSCAASGFTFSDYGMHWVRQAPGKGLEWVSSINYNSGYKSYADSVKGRFTISRDNSKNTLYLQMNSLRAEDTAVYYCARAANWHDTALDYWGQGTLVTVSS VL: DIQMTQSPSSLSASVGDRVTITCRASQSIVSYLNWYQQKPGKAPKLLIYYVTNLASGVPSRFSGSGSGTDFTLTISSLQPEDFATYYCQQSYDNPLTFGGGTKVEIK	optical density	3.73 OD
367_A06 (antibody, V domains shown, Group III) VH: EVQLLESGGGLVQPGGSLRLSCAASGFTFDSYGMNWVRQAPGKGLEWVASINYNGGYKGYADSVKGRFTISRDNSKNTLYLQMNSLRAEDTAVYYCARGANWHDTHLDYWGQGTLVTVSS VL: DIQMTQSPSSLSASVGDRVTITCRASQSILSYVNWYQQKPGKAPKLLIYAATSRHSGVPSRFSGSGSGTDFTLTISSLQPEDFATYYCQQSYDTPLTFGGGTKVEIK	optical density	2.34 OD
368_B10 (antibody, V domains shown, Group I) VH: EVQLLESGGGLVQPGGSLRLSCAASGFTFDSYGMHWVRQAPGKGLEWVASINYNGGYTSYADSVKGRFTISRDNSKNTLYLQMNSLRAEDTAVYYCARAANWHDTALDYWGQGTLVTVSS VL: DIQMTQSPSSLSASVGDRVTITCRASQSILTYLNWYQQKPGKAPKLVIYAATSRASGVPSRFSGSGSGTDFTLTISSLQPEDFATYYCQQSDELPLTFGGGTKVEIK	optical density	2.35 OD
366_H01 (antibody, V domains shown, Group II) VH: EVQLLESGGGLVQPGGSLRLSCAASGFTFDDYSMHWVRQAPGKGLEWVANINYNGGYTSYADSVKGRFTISRDNSKNTLYLQMNSLRAEDTAVYYCARAATWHDTHLDYWGQGTLVTVSS VL: DIQMTQSPSSLSASVGDRVTITCRASQSILTYLNWYQQKPGKAPKLVIYATTSRHSGVPSRFSGSGSGTDFTLTISSLQPEDFATYYCQQSYESPLTFGGGTKVEIK	optical density	2.79 OD
